# System: parent elite stiff stalk inbred corn
# assay name: Preemergence effect of ALS herbicides (fresh weight, visual injury)
# reported conditions: 200 g/ha, 4 weeks after treatment, 0% no injury, 100% plant death, mean of four replications
measured endpoint: % Visual Injury Patent elite stiff stalk inbred (%)
# unit: % | format: bare number

In [3]: df
Out[3]:
                                   molecule  reported
0  COc1cc(OC)nc(Sc2cccc(Cl)c2C(=O)[O-])n1.[Na+] [Pyrithiobac Na^+, pyrithiobac-sodium]       100
1  COC(=O)c1ccccc1S(=O)(=O)NC(=O)Nc1nc(C)cc(C)n1 [Sulfometuron-methyl]       100
2  COc1cc(OC)nc(NC(=O)NS(=O)(=O)c2ncccc2C(=O)N(C)C)n1 [Nicosulfuron]        43

Query block: Reported % Visual Injury Patent elite stiff stalk inbred for parent elite stiff stalk inbred corn, given COC(=O)c1ccccc1S(=O)(=O)NC(=O)Nc1nc(C)nc(OC)n1 [Metsulfuron-methyl] ?
Result block: 100

Query block: Repeat with CO/N=C(/C)c1cccc(Oc2nc(OC)cc(OC)n2)c1C(=O)OC [Pyriminobac-methyl]
Result block: 83

----------
# System: heterozygous GAT-HRA corn
# assay name: Preemergence effect of ALS herbicides (fresh weight, visual injury)
# reported conditions: 200 g/ha, fresh shoots 4 weeks after treatment, mean of four replications, untreated 47.0 g
Measured Fresh Weight (g) Heterozygous GAT-HRA of individual entries

>>> df
                                   compound  reported
0  COC(=O)c1cccc(C)c1S(=O)(=O)NC(=O)Nc1nc(OCC(F)(F)F)nc(N(C)C)n1    53.5 g
1  CCOc1nc(NC)nc(NC(=O)NS(=O)(=O)c2ccccc2C(=O)OC)n1    50.1 g
2  COC(=O)c1ccccc1S(=O)(=O)NC(=O)Nc1nc(C)cc(C)n1    47.3 g
3  CC(C)C1(C)N=C(c2nc3ccccc3cc2C(=O)O)NC1=O (centres unmarked)    45.4 g

Query block: Param readout= Fresh Weight (g) Heterozygous GAT-HRA; system= heterozygous GAT-HRA corn; entry= CCCOc1nn(C(=O)NS(=O)(=O)c2ccccc2C(=O)OC)c(=O)n1C ; returns value.
Result block: 46.7 g

Query block: Another compound to check: COCc1cnc(C2=NC(C)(C(C)C)C(=O)N2)c(C(=O)O)c1 (centres unmarked)
Result block: 47.5 g

----------
# Tested on: parent elite stiff stalk inbred corn
# assay name: Postemergence effect of ALS herbicides, glyphosate and glufosinate (fresh weight, visual injury)
# reported conditions: 200 g/ha (glyphosate 3472 g ae/ha, glufosinate ammonium 1870 g/ha), 2 weeks after treatment, 0% no injury, 100% plant death, mean of four replications
measured endpoint: % Visual Injury Parent elite stiff stalk inbred (%)
Entry rule: numbers only, all in %.

Query block: Consider the compound shown here: COc1cc(OC)nc(NC(=O)NS(=O)(=O)c2cc(NC=O)ccc2C(=O)N(C)C)n1 [Foramsulfuron] What is its recorded % Visual Injury Parent elite stiff stalk inbred?
Result block: 28

Query block: What do you get for CCS(=O)(=O)c1nc2ccccn2c1S(=O)(=O)NC(=O)Nc1nc(OC)cc(OC)n1 [Sulfosulfuron] ?
Result block: 97

Query block: Do the same for COC(=O)c1c(Cl)nn(C)c1S(=O)(=O)NC(=O)Nc1nc(OC)cc(OC)n1 [Halosulfuron-methyl] please
Result block: 14

Query block: Also check CCOc1ccccc1OS(=O)(=O)NC(=O)Nc1nc(OC)cc(OC)n1 [Ethoxysulfuron]
Result block: 88

Query block: Then this compound: COc1nc(C)nc(NC(=O)NS(=O)(=O)c2ccccc2Cl)n1 [Chlorsulfuron]
Result block: 100

Query block: Next compound: CC(C)C1(C)N=C(c2ncccc2C(=O)O)NC1=O (centres unmarked) [Imazapyr]
Result block: 100

Query block: Now try COC(=O)c1cccc(C)c1S(=O)(=O)NC(=O)Nc1nc(OCC(F)(F)F)nc(N(C)C)n1 [Triflusulfuron-methyl] .
Result block: 100

Query block: Next compound up: COc1cc(OC)nc(Sc2cccc(Cl)c2C(=O)[O-])n1.[Na+] [Pyrithiobac Na^+, pyrithiobac-sodium]
Result block: 100

Numbers sourced from patent US20080234130A1.
